Where do these numbers come from? They come from PubChem BioAssay (NCI).

Tested on: SR leukemia
Assay: NCI tumour cell line growth inhibition, 48 h
Quick list: TGI per entry.

{"Compound": "CCOc1cc2c[n+](C)c3c4cc(OC)c(OC)cc4ccc3c2cc1OC", "TGI": "> 100 µM"}
{"Compound": "Cc1cc(-c2no[n+]([O-])c2-c2cc(C)sc2S(C)(=O)=O)c(S(C)(=O)=O)s1", "TGI": "> 100 µM"}
{"Compound": "O=C1OC2C(O)COC2(O)C1(O)Cc1c[nH]c2ccccc12 (stereo unspecified)", "TGI": "> 100 µM"}
{"Compound": "O=C(/C=C1\\C[C@H]2C=Nc3ccccc3C(=O)N2C1)NCCCNC(=O)/C=C1\\C[C@H]2C=Nc3ccccc3C(=O)N2C1", "TGI": "4.62 µM"}
{"Compound": "Cc1ccc2c(c1)C(=O)c1[nH]c3ccc(F)cc3c1CO2", "TGI": "> 100 µM"}
{"Compound": "CCCCCCc1nn2c(-c3ccncc3)nnc2s1", "TGI": "> 10 µM"}
{"Compound": "N#Cc1c(N)nc(Nc2cccc3ccccc23)c(C#N)c1C#N", "TGI": "9.29 µM"}
{"Compound": "Cc1nc2cc(-n3c(-c4ccc(F)cc4)nc4ccccc4c3=O)ccc2n1Cc1ccccc1", "TGI": "> 100 µM"}
{"Compound": "CN1CCN(CCn2c3c4ccccc4ccc3c3oc(=O)c4ccccc4c32)CC1", "TGI": "3.13 µM"}
{"Compound": "O=C(/C(=C\\c1ccccc1)CN1CCOCC1)c1ccc(Br)cc1", "TGI": "17.4 µM"}
{"Compound": "CC(C)C(=O)N1C(=O)O[C@@H](c2ccccc2)[C@H]1C", "TGI": "> 100 µM"}

* * *

Test system: HCT-116 colon
Assay: NCI tumour cell line growth inhibition, 48 h

{"Molecule": "O=[N+]([O-])/C(C(Cl)=C(Cl)Cl)=C(\\Nc1cccc2ccccc12)Sc1ccccc1", "Inequality sign": "=", "TGI / µM": 56.3}
{"Molecule": "N=C(N)SCCc1ccncc1", "Inequality sign": ">", "TGI / µM": 100}
{"Molecule": "N#Cc1c(-c2ccccc2)c(C#N)c(=S)n(C2OC(CO)C(O)C(O)C2O)c1N (stereo not given)", "Inequality sign": ">", "TGI / µM": 100}
{"Molecule": "COc1ccc(C2C=C(c3ccccc3)Nc3nnnn32)cc1 (stereo not given)", "Inequality sign": "=", "TGI / µM": 29.3}
{"Molecule": "O=C(C[Si](CC(=O)c1cccc(C(F)(F)F)c1)CC(=O)c1cccc(C(F)(F)F)c1)c1cccc(C(F)(F)F)c1", "Inequality sign": "=", "TGI / µM": 8.87}

* * *

System: CCRF-CEM leukemia
Assay: NCI tumour cell line growth inhibition, 48 h; in the data active = GI50 below about 0.43 µM; inactive = the rest
Labels: active, inactive

{"Molecule": "Nc1nc(N)c2cc(CNc3ccc(C(=O)NC(CC(=O)O)C(=O)O)cc3)ccc2n1 (stereo not given)", "Class name": "active"}
{"Molecule": "Cc1c(C(=O)O)n(-c2ccc(Cl)cc2)c2ncnc(N)c12", "Class name": "inactive"}
{"Molecule": "O=C(N/N=C\\c1c(O)ccc2ccccc12)C1CC1", "Class name": "inactive"}
{"Molecule": "CCOC(=O)C1=C(C)N(c2ccc(OC)cc2)C2(O)C=CC(=O)C3C(=O)N(c4ccccc4)C(=O)C132 (stereo not given)", "Class name": "inactive"}
{"Molecule": "O[N+]1=CC=CCC1=S.On1ccccc1=S.[Zn]", "Class name": "inactive"}
{"Molecule": "CN1CCN(c2ccc3nc(-c4c5cccccc-5[nH]c4=O)[nH]c3c2)CC1", "Class name": "inactive"}
{"Molecule": "CC(=O)[CH-]C(C)=O.CC(=O)[CH-]C(C)=O.[CH2-]CCCCCCC.[CH2-]CCCCCCC.[Sn+4]", "Class name": "inactive"}
{"Molecule": "Cn1cc(C2=C(c3cn(CCCO)c4ccccc34)C(=O)NC2=O)c2ccccc21", "Class name": "inactive"}
{"Molecule": "Clc1ccc(C2c3ccccc3-c3nccn32)c(Cl)c1 (stereo not given)", "Class name": "inactive"}
{"Molecule": "COc1ccc2c(c1)C(=O)c1c-2n(CCCNCCO)c(=O)c2ccccc12", "Class name": "active"}

* * *

Tested on: HCT-15 colon
Assay: NCI tumour cell line growth inhibition, 48 h
Measured TGI accompanies every entry in the list below.

{"Compound structure": "COc1cc(OC)cc(C(=O)NC2=C(Cl)C(=O)c3ccccc3C2=O)c1", "Inequality sign": "=", "TGI, µM": 10.4}
{"Compound structure": "CCc1n[nH]c(=O)n1NC(=O)CCCC(=O)O", "Inequality sign": ">", "TGI, µM": 100}
{"Compound structure": "CC(=O)c1cc2c(c(O)c1C)C(=O)C(=O)c1c(O)cccc1-2", "Inequality sign": "=", "TGI, µM": 0.302}

* * *

Test system: LOX IMVI melanoma
Assay: NCI tumour cell line growth inhibition, 48 h; in the data active means GI50 below about 0.43 µM; inactive means the rest
Possible outcomes: active, inactive

{"Molecule": "CCCCCCNC(=O)Nc1ccc2cc3ccc(NC(=O)NCCCCCC)cc3nc2c1", "Class name": "active"}
{"Molecule": "Cc1c2cnccc2c(C)c2c1c1cc(CO)ccc1n2C", "Class name": "active"}
{"Molecule": "COc1ccc(/C=C/C(=O)c2cccc(B(O)O)c2)cc1O", "Class name": "inactive"}
{"Molecule": "COC(=O)C1=C(O)[C@H](C(=O)OC)C2(O)[C@@H](C(=O)OC)[C@H]1C[C@@H](c1ccc(OC(=O)n3ccnc3)cc1)[C@@H]2C(=O)OC", "Class name": "inactive"}
{"Molecule": "O=C(O)CCCn1c(SCc2c(Cl)cccc2Cl)nc2ccsc2c1=O", "Class name": "inactive"}
{"Molecule": "CO[C@H](C(=O)[C@@H](O)[C@@H](C)O)[C@@H]1Cc2cc3cc(O[C@H]4C[C@@H](O[C@H]5C[C@@H](O)[C@H](O)C(C)O5)[C@H](O)C(C)(O)O4)cc(O)c3c(O)c2C(=O)[C@H]1O[C@H]1C[C@@H](O[C@H]2C[C@@H](O[C@H]3C[C@@H](OC)[C@H](O)C(C)O3)[C@@H](O)C(C)O2)[C@H](O)C(C)O1 (some centres undefined)", "Class name": "active"}
{"Molecule": "Cc1ccc(-c2cc(C(=O)N3N=C(c4ccc(N)cc4)CC3c3ccc(Cl)cc3)c3ccccc3n2)cc1 (centres undefined)", "Class name": "inactive"}
{"Molecule": "COC(=O)C(N)CSC(c1ccccc1)(c1ccccc1)c1ccccc1 (centres undefined)", "Class name": "inactive"}
{"Molecule": "Cc1cc(Nc2cccc(F)c2)nc(NCc2ccccc2)n1", "Class name": "inactive"}

* * *

System: NCI-H522 lung
Assay: NCI tumour cell line growth inhibition, 48 h

{"Molecule": "CN1CCc2c(sc3ncn(N)c(=N)c23)C1", "Target": "NCI-H522 lung", "TGI": "> 100 µM"}
{"Molecule": "Cc1c(C(=O)O)n(-c2ccc(Cl)cc2)c2ncnc(N)c12", "Target": "NCI-H522 lung", "TGI": "50.5 µM"}
{"Molecule": "O=C(N/N=C\\c1c(O)ccc2ccccc12)C1CC1", "Target": "NCI-H522 lung", "TGI": "> 100 µM"}
{"Molecule": "C[C@@H](O)[C@H]1C(=O)N2C(C(=O)O)=C(SCCN=CN)C[C@H]12", "Target": "NCI-H522 lung", "TGI": "4.12 µM"}
{"Molecule": "O=C(/C=C/c1ccc(OCCSCCCCCCCCCCSCCOc2ccc(/C=C/C(=O)c3ccc(Cl)cc3)cc2)cc1)c1ccc(Cl)cc1", "Target": "NCI-H522 lung", "TGI": "> 100 µM"}
{"Molecule": "O=C(O)c1cc(-c2ccc3c(O)ccc(O)c3c2)ccc1O", "Target": "NCI-H522 lung", "TGI": "36.5 µM"}
{"Molecule": "Cc1c(C(N)=O)sc2c1c(=O)n(Cc1ccccc1)c1nnc(SCC(=O)Nc3ccc(Cl)cc3)n21", "Target": "NCI-H522 lung", "TGI": "> 100 µM"}
{"Molecule": "Cc1ccc(O)c(N=Nc2ccc(S(=O)(=O)O)cc2)n1", "Target": "NCI-H522 lung", "TGI": "> 100 µM"}
{"Molecule": "OC1CC2CCCN(CCc3c1[nH]c1ccccc31)C2 (stereo unspecified)", "Target": "NCI-H522 lung", "TGI": "> 100 µM"}
{"Molecule": "COc1ccc(C2C=C(c3ccccc3)Nc3nnnn32)cc1 (stereo unspecified)", "Target": "NCI-H522 lung", "TGI": "57.7 µM"}
{"Molecule": "C/C=N\\n1c(C)n[nH]c1=O", "Target": "NCI-H522 lung", "TGI": "> 100 µM"}
{"Molecule": "Cc1cc(Nc2cccc(F)c2)nc(NCc2ccccc2)n1", "Target": "NCI-H522 lung", "TGI": "24.7 µM"}
{"Molecule": "Cn1cc(C2=C(c3cn(CCCO)c4ccccc34)C(=O)NC2=O)c2ccccc21", "Target": "NCI-H522 lung", "TGI": "13.2 µM"}
{"Molecule": "CCN(CC)c1ccc2cc(-c3nc(-c4ccccc4)n[nH]3)c(=O)oc2c1", "Target": "NCI-H522 lung", "TGI": "> 100 µM"}
{"Molecule": "CC1=NN(c2nc(N)nc(/C(C#N)=C\\C3COc4ccccc4C3=O)n2)C(C)(C)C1 (stereo unspecified)", "Target": "NCI-H522 lung", "TGI": "> 100 µM"}
{"Molecule": "Brc1ccc(N=NN2CCCC2)cc1", "Target": "NCI-H522 lung", "TGI": "> 100 µM"}
{"Molecule": "CN1CCN(c2ccc3nc(-c4c5cccccc-5[nH]c4=O)[nH]c3c2)CC1", "Target": "NCI-H522 lung", "TGI": "> 46.8 µM"}
{"Molecule": "O=c1[nH]nc(Cc2ccccc2)n1/N=C\\CC/C=N\\n1c(Cc2ccccc2)n[nH]c1=O", "Target": "NCI-H522 lung", "TGI": "> 100 µM"}
{"Molecule": "O=C(CC1(O)C(=O)Nc2c(Cl)cc(Cl)cc21)c1ccco1 (stereo unspecified)", "Target": "NCI-H522 lung", "TGI": "> 100 µM"}
{"Molecule": "O=c1[nH]c(=S)[nH]c2c1C(c1ccc(Cl)cc1)c1c([nH]c(=S)[nH]c1=O)O2", "Target": "NCI-H522 lung", "TGI": "> 100 µM"}
{"Molecule": "CCOC(=O)c1cc2c(c3ccsc13)C1(C)CCC3c4ccc(OC)cc4CCC3C1C2 (stereo unspecified)", "Target": "NCI-H522 lung", "TGI": "> 100 µM"}
{"Molecule": "O=C(O)CCCn1c(SCc2c(Cl)cccc2Cl)nc2ccsc2c1=O", "Target": "NCI-H522 lung", "TGI": "32.2 µM"}
{"Molecule": "COc1ccc(C=Nc2c(O)ccc3ccccc23)cc1OC", "Target": "NCI-H522 lung", "TGI": "64.2 µM"}
{"Molecule": "CCN(CC)c1ccc(/C=C2\\SC(=O)C(Nc3nnc(-c4cccnc4SCc4ccccc4)o3)C2=O)cc1 (stereo unspecified)", "Target": "NCI-H522 lung", "TGI": "9.67 µM"}
{"Molecule": "C[C@@H]1CCC[C@]2(C)O[C@H]2CC[C@@](C)(O)[C@@H]2CC3=C(CO)C(=O)O[C@H]3[C@H]1O2", "Target": "NCI-H522 lung", "TGI": "> 50 µM"}
{"Molecule": "O=C1C=CC(=O)c2ccc(=O)ccc21", "Target": "NCI-H522 lung", "TGI": "5.82 µM"}
